We begin with a simple list: items and their reported Activity.
biological target: Replicase polyprotein 1ab (Severe acute respiratory syndrome-related coronavirus) (UniProt P0C6X7); assay: Reversible inhibition of SARS coronavirus 3C-like protease using 5-FAM-TSATLQSGFRK(QXL520)-NH2 as substrate assessed as recovery rate at 20 x IC50 preincubated for 1 hr followed by compound washout by FRET assay in presence of GSH; design: scale not given: the % may be the effect or the level left
assay.metric: Activity

[
  {
    "input.smiles": "Cn1cnc2cc(NC(=O)c3ccc(Cl)cc3)ccc21",
    "assay.metric": "Activity",
    "test.result": "> 50%"
  },
  {
    "input.smiles": "CCOc1ccc(S(=O)(=O)NCc2ccc3c(c2)OCO3)cc1C",
    "assay.metric": "Activity",
    "test.result": "> 50%"
  },
  {
    "input.smiles": "S=C(NCc1cccnc1)SCc1cc(Cl)sc1Cl",
    "assay.metric": "Activity",
    "test.result": "> 50%"
  },
  {
    "input.smiles": "COc1ccc(C(=O)Cn2c(NCCO)nc3ccccc32)cc1",
    "assay.metric": "Activity",
    "test.result": "14.3%"
  }
]

###

target: UniProtKB P0C6X7; assay: Inhibition of SARS coronavirus 3C-like protease using 5-FAM-TSATLQSGFRK(QXL520)-NH2 as substrate
pIC50: −log10 of the molar value. Where a name gives a salt, the structure may show the parent alone.

[
  {
    "molecule": "Cn1cnc2cc(NC(=O)c3ccc(Cl)cc3)ccc21",
    "pIC50": 4.74
  },
  {
    "molecule": "CCCCC(CC)CNC(=N)NC(=N)NCCCCCCNC(=N)NC(=N)NCC(CC)CCCC (configuration not stated) [ALEXIDINE DIHYDROCHLORIDE]",
    "pIC50": 4.60
  }
]

###

target: UniProt:P0C6X7; test: Inhibition of SARS coronavirus 3C-like protease using 5-FAM-TSATLQSGFRK(QXL520)-NH2 as substrate preincubated for 5 mins followed by substrate addition measured after 6 mins by FRET assay in presence of GSH
Structures can show the parent of a compound that is named as a salt.

[
  {
    "molecule": "CCOc1ccc(S(=O)(=O)NCc2ccc3c(c2)OCO3)cc1C",
    "inequality.sign": "=",
    "IC50, µM": 76.7
  },
  {
    "molecule": "COCCOCCn1c(CCCO)nc2ccccc21",
    "inequality.sign": "=",
    "IC50, µM": 186
  },
  {
    "molecule": "Nc1ccc(F)c(S(=O)(=O)Nc2cccc(C(F)(F)F)c2)c1",
    "inequality.sign": ">",
    "IC50, µM": 200
  },
  {
    "molecule": "C(=C\\c1ccccc1)/C[N+]1(C/C=C/c2ccccc2)CCN(C(c2ccccc2)c2ccccc2)CC1",
    "inequality.sign": "=",
    "IC50, µM": 28.3
  },
  {
    "molecule": "CN(CC(=O)NC1CCCC1)S(=O)(=O)c1cccc(Cl)c1",
    "inequality.sign": ">",
    "IC50, µM": 200
  },
  {
    "molecule": "COc1ccc(N(CC(=O)NCc2ccco2)S(C)(=O)=O)cc1",
    "inequality.sign": "=",
    "IC50, µM": 61.9
  },
  {
    "molecule": "O=C(c1cncc(Br)c1)N1CCN(Cc2ccsc2)CC1",
    "inequality.sign": "=",
    "IC50, µM": 24.5
  },
  {
    "molecule": "CCCCC(CC)CNC(=N)NC(=N)NCCCCCCNC(=N)NC(=N)NCC(CC)CCCC (configuration not stated) [ALEXIDINE DIHYDROCHLORIDE]",
    "inequality.sign": "=",
    "IC50, µM": 17.8
  },
  {
    "molecule": "Cn1cnc2cc(NC(=O)c3ccc(Cl)cc3)ccc21",
    "inequality.sign": "=",
    "IC50, µM": 30.9
  },
  {
    "molecule": "COc1ccc(C(=O)Cn2c(NCCO)nc3ccccc32)cc1",
    "inequality.sign": "=",
    "IC50, µM": 40.9
  },
  {
    "molecule": "S=C(NCc1cccnc1)SCc1cc(Cl)sc1Cl",
    "inequality.sign": "=",
    "IC50, µM": 9.2
  },
  {
    "molecule": "OCCCc1nc2ccccc2n1CCOc1ccccc1",
    "inequality.sign": "=",
    "IC50, µM": 74.5
  }
]

###

target: Replicase polyprotein 1ab (Severe acute respiratory syndrome-related coronavirus, UniProt P0C6X7)

[
  {
    "input.smiles": "Cn1cnc2cc(NC(=O)c3ccc(Cl)cc3)ccc21",
    "Ki (µM)": 27.5
  }
]
